Data credit: patent US11123279B2

# Test system: B16 melanocyte cells
# Test method notes: B16 cell melanogenesis inhibition assay
# Format: cell-based
# Conditions used: Melanocyte, 72 h, B16 cultured melanocyte cells, 3 days incubation, melanin OD at 480 nm; read-out: IC50, melanogenesis inhibition
Parameter measured: IC50 (µg/mL)

{"Compound": "O=c1[nH]cnc2[nH]cnc12 [Hypoxanthine]", "Unit label": "µg/mL", "IC50": 70}
{"Compound": "O=c1cc(CO)occ1O [Kojic acid (Standard), Kojic acid, reference compound]", "Unit label": "µg/mL", "IC50": 51}
{"Compound": "O=C1O[C@H]([C@H](O)CO)C(O)=C1O [Erythorbic Acid]", "Unit label": "µg/mL", "IC50": 73}
{"Compound": "Cc1occc(=O)c1O [Maltol, 3-hydroxy-2-methyl-4H-pyran-4-one]", "Unit label": "µg/mL", "IC50": 65}
